- experimental-system: T1, recombinant purified human RGM A (human, UniProt Q96B86 48-424, limits assumed)
- T1 construct: Bought recombinant protein (R&D Systems); also called hRGM A; hRGMA
- T1 sequence: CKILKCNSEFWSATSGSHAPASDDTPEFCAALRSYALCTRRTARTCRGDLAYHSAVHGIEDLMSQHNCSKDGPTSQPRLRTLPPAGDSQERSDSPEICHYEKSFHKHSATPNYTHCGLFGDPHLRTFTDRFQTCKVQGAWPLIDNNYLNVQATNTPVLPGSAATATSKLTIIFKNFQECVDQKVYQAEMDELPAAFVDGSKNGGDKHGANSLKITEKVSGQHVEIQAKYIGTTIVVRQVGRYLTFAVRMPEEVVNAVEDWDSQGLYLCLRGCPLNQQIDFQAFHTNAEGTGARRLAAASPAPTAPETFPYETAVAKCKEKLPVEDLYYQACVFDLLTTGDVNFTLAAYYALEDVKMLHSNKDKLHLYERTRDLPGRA
- assay-comment: competition ELISA on coated hRGMA; competitor biotinylated chimeric 5F9
measure: IC50 (µg/mL)
API: value field is a number in µg/mL; no unit string.

Incoming: Looking for the measured IC50 of humanized antibody h5F9.25 (antibody, V domains shown) VH: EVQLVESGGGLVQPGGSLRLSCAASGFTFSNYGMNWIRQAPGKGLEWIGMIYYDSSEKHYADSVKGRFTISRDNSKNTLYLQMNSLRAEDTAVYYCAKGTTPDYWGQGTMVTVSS VL: DVVLTQSPLSLPVTLGQPASISCRSSQSLEYSDGYTFLEWFLQKPGQSPQLLIYEVSNRFSGVPDRFSGSGSGTDFTLKISRVEAEDVGVYYCFQATHDPLTFGQGTKLEIKR , can you help?
Outgoing: 0.66
